- protocol_text: yeast display, Sf9 membrane polyspecificity reagent, FACS + sequencing; frameworks hold sequencing errors

macromolecule_sequence: QVQLVESGGGLVQAGGSLRVSCAASGGILRGYAMGWYRQARGKEWELVAAISRGGRTNYADSVKGRFTISRDNAKNTVYLQMNSLKPEDTAVYYCAKRYARGENDYWGQGTQVTVSS
polyreactivity (PSR sort gate): high polyreactivity

macromolecule_sequence: QVQLVESGGGLVQAGGSLRLSCAASGFTFRRYAMGWYRQAPGKERELVAAISNGGSTYYADSVKGRFTISRDNAKNTVYLQMNSLKPEDTAVYYCAADIYSYFWWPYYYWGQGTQVTVSS
polyreactivity (PSR sort gate): high polyreactivity

macromolecule_sequence: QVQLVESGGGLVQAGGSLRLSCAASGLTFSFYAMGWYIPAPGKDTERVAAISSGGGITYYADSVKGRFTISRDNAKNTVYLQMNSLKPEDTALYYCNTDDYYQYWVPSEYYYCGQGTQVTVSS
polyreactivity (PSR sort gate): low polyreactivity

macromolecule_sequence: QVQLVESGGGLVQAGGSLRLSWAASGLIFYWYAMGWYRQAPGKERELVAAINRGGSTYYADSVKGRFTISRDNAKNTVYLQMNSLKPEDTAVYYCAAGGYRGRKRFGWDYTYNYWGQGTQVTVSS
polyreactivity (PSR sort gate): low polyreactivity

macromolecule_sequence: QVQLVDSGGGLVQAGGSLRLSCAASGITFRGYAMGWYRQSPGKERELVATITSSGGSTYYADSVKGRFTISRDNAKNTVYLQMNSLKPEDTAVYYCAAVPYTRYSSSRGYWGQGTQVTVSS
polyreactivity (PSR sort gate): high polyreactivity

macromolecule_sequence: QVQHVESGGGLVQAGGSLRLSCAASGRIFGGNAMGWYRQAPGKERELVAAISIGGGSTNYADSVKGRFTISRDNAKNTFYLQMNSLKPEDTAVYYCAARTRYTSVGKLYSWGQGTQVTVSS
polyreactivity (PSR sort gate): high polyreactivity

macromolecule_sequence: QVQLVESAGGLVQAGGSLRLSCAASGSTFGPYAMGWYRQVPGKERELVAGISYGGGTTFYADSVKGRFTISRDNAKYTVYLQMNSLKPEDTAVYYCAATYRPNRYLEGYWGQGTQVTVSS
polyreactivity (PSR sort gate): high polyreactivity

macromolecule_sequence: QVQLVESGGGLVQAGGSLRLSCAASGRTFASYAMGWYRPAPGKEREFVAVISVNGGNTYYADSVKGRFTISRDNAKNTVYLQMNSLKPEDTAVYYCARFDGWYQGYYPLYEFDYWGQGTQVTVSS
polyreactivity (PSR sort gate): high polyreactivity

macromolecule_sequence: QVQLVESGGGLVQAGGSLRLSCAASGSIFRSYAMGWYRQAPGKERELVAAISSGGRTKYADSVKGRFTISRDNAKNTVYLQMNSLKPEDTAVYYCAARVNVKYYGFYYWGQGTQVTVSS
polyreactivity (PSR sort gate): high polyreactivity

macromolecule_sequence: QVQLVESGGGLVQAGGSLRLSCAASGSTFTYYAMGWYRQAPGKERELVAAITGGGSTNYADSVKGRFTISRDNAKNTVYLQMNSLKPEDTAVYYCAARTARYYYGWRYTGEYGYWGQGTQVTVSS
polyreactivity (PSR sort gate): high polyreactivity

macromolecule_sequence: QVQLVESGGGLVQAGGSLRLSCAASGSIFTTYAMGWYRQAPGKERELVAAISRAGDTTYADSVKGRFTISRDNAKNTVYLQMNSLKPEDTAVYYCADYDYWGQGTQVTVSS
polyreactivity (PSR sort gate): low polyreactivity
